- methodDescription: Toxicity (acute toxicity, 50% lethal dose)
- experimentalSetup: mouse, in vivo, ip; ddY male mice; read-out: 50% Lethal dose, intraperitoneally administered
Structures can show the parent of a compound that is named as a salt.
measurementName: LD50

Enquiry: Item CC(C)=CCCC(C)=CCCC(C)=CCCC(C)=CCCC(C)=CCCC(C)=CCCC(C)=CCCC(C)=CCCC(C)=CCNCCc1ccccc1 [N-phenethylsolanesylamine hydrochloride] has what recorded LD50?
Return: > 500 mg/kg

Enquiry: Item "CC(C)=CCCC(C)=CCCC(C)=CCCC(C)=CCCC(C)=CCCC(C)=CCCC(C)=CCCC(C)=CCCC(C)=CCN(C)c1ccccc1" has what recorded LD50?
Return: > 500 mg/kg

Enquiry: Item CC(C)=CCCC(C)=CCCC(C)=CCCC(C)=CCCC(C)=CCCC(C)=CCCC(C)=CCCC(C)=CCCC(C)=CCN(C)Cc1ccccc1 [hydrochloride] has what recorded LD50?
Return: > 500 mg/kg

###

- methodDescription: Toxicity (acute toxicity, 50% lethal dose)
- experimentalSetup: mouse, in vivo, iv; ddY male mice; read-out: 50% Lethal dose, intravenously administered
Structures can show the parent of a compound that is named as a salt.
For each of the compounds below, state its LD50.
Supply the numeric figure in mg/kg, leaving out any unit text.

Enquiry: Item CC(C)=CCCC(C)=CCCC(C)=CCCC(C)=CCCC(C)=CCCC(C)=CCCC(C)=CCCC(C)=CCCC(C)=CCNCCc1ccccc1 [N-phenethylsolanesylamine hydrochloride] has what recorded LD50?
Return: 250

Enquiry: Item CC(C)=CCCC(C)=CCCC(C)=CCCC(C)=CCCC(C)=CCCC(C)=CCCC(C)=CCCC(C)=CCCC(C)=CCNCc1ccccc1 [N-benzylsolanesylamine hydrochloride] has what recorded LD50?
Return: 152

Enquiry: Item CC(C)=CCCC(C)=CCCC(C)=CCCC(C)=CCCC(C)=CCCC(C)=CCCC(C)=CCCC(C)=CCCC(C)=CCN(C)Cc1ccccc1 [hydrochloride] has what recorded LD50?
Return: 550

Just for reference, patent US4322555A is where these values come from.
